target: Tyrosine-protein kinase JAK2 (Homo sapiens)
Sequence (O60674 whole entry): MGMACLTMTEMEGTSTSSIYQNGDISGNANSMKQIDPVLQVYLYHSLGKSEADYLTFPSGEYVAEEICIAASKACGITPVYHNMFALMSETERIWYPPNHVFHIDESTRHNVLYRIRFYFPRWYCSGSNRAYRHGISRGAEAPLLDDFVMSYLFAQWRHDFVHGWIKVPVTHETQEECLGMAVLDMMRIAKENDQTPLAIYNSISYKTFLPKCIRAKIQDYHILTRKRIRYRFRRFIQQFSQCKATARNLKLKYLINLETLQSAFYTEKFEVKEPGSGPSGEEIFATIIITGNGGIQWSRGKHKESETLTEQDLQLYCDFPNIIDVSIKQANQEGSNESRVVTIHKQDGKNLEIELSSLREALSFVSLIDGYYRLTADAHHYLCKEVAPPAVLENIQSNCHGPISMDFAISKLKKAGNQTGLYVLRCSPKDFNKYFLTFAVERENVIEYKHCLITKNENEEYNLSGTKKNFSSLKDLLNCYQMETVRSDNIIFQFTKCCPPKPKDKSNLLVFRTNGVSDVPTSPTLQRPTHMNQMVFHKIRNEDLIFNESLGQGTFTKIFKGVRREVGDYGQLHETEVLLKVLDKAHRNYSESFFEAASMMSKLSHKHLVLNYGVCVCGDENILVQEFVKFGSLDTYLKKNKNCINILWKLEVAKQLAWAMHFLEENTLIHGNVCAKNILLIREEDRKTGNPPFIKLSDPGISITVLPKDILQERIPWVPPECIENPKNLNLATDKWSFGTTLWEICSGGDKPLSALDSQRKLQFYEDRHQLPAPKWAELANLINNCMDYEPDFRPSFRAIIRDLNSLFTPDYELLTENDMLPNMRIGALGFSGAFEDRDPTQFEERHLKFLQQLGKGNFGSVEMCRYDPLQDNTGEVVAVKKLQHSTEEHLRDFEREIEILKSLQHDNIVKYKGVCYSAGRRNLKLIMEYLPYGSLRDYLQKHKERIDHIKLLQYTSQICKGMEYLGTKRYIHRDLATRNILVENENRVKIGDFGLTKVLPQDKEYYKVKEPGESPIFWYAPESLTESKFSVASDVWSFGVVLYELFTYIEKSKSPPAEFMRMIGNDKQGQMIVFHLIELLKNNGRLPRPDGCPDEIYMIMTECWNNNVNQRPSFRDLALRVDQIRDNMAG
property-measured: Ki

Exercise: Please give the measured Ki for this compound: C=CC(=O)N1[C@@H]2CC[C@H]1C[C@H](Oc1cc(-c3ccc(O)cc3)cn3cncc13)C2
Solution: > 100 nM
